I'd be grateful if you could share measured Screen Rabbit/No Protein for these entries.
Test system: rabbit vWF A1 domain (SEQ ID NO 6)
Sequence (as listed by the source): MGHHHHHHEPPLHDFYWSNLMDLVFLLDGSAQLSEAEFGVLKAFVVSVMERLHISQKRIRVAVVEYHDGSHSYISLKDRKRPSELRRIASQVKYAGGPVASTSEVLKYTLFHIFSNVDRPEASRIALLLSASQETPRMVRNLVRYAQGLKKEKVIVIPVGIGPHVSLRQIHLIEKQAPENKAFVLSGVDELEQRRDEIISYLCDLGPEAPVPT
assay_name: 3-point dot blot screen, rabbit vWF A1 domain
Type: binding
test_context: 3-point dot blot screen, 20 nM rabbit vWF A1 domain; ratio of fraction of aptamer bound with target protein to fraction bound without protein
Give bare numbers.

{"molecule": "AMX238.F6: DNA SELEX 2 aptamer clone (nucleic acid, DNA, backbone not given here, DNA SELEX 2 aptamer clone) DNA: CTACCTACGATCTGACTAGCGGAATGAGTATGCTGGTGGATTGCTCAGGTCTGCTGGCTGCTTACTCTCATGTAGTTCC", "Screen Rabbit/No Protein": 5.36}
{"molecule": "AMX237.E2: DNA SELEX 2 aptamer clone (nucleic acid, DNA, backbone not given here, DNA SELEX 2 aptamer clone) DNA: CTACCTACGATCTGACTAGCTCCAGTGTTTCATCTAATAACCGTGCGGTGCCTCCGTGAGCTTACTCTCATGTAGTTCC", "Screen Rabbit/No Protein": 1.61}
{"molecule": "AMX237.B11: DNA SELEX 2 aptamer clone (nucleic acid, DNA, backbone and methylation of C not given here, DNA SELEX 2 aptamer clone) DNA: CTACCTACGATCTGACTAGCTCCAGTGTTTTATCTAATAACCGTGCGGTGCCTCCGTGAGCTTACTCTCATGTAGTTCC", "Screen Rabbit/No Protein": 2.57}

Problem: Give reported Screen Rabbit/No Protein value for AMX238.A6: DNA SELEX 2 aptamer clone (nucleic acid, DNA, backbone not given here, DNA SELEX 2 aptamer clone) DNA: CTACCTACGATCTGACTAGCGGAATGAGAATGCAGATGGATTGCTCAGGTCTGCTGGCTGCTTACTCTCATGTAGTTCC
Solution: 3.47
